Target: T1, human EphA8 (Homo sapiens, UniProt P29322)
T1 construct: a protein of the extracellular region of each human Eph receptor fused with the SEAP protein and the His tag; made in house; host or cells: Expi293F cells (culture supernatant)
T1 sequence (P29322 28-542 limits assumed): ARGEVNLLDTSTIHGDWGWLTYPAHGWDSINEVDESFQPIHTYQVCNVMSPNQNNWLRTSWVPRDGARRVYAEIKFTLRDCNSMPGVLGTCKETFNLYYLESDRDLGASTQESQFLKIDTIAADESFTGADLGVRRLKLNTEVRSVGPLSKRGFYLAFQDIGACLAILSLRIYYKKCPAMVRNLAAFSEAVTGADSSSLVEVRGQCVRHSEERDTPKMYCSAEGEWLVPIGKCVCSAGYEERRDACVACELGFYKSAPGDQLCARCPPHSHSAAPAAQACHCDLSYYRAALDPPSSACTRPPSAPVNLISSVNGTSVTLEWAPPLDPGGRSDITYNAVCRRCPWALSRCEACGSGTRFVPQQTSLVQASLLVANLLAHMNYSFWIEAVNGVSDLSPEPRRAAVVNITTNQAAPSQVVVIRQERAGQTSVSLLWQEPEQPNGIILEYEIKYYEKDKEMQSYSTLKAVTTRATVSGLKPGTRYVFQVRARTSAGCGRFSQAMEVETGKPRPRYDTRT
Test: Selectivity ELISA of humanized antibodies for human Eph receptor
Assay type: binding
Conditions: coated protein 1 nM
Source text: According to the method described in Example 7, a DNA sequence encoding the signal sequence and the extracellular region of each human Eph receptor (EphA1, EphA2, EphA3, EphA4, EphA5, EphA6, EphA7, EphA8, EphA10, EphB1, EphB2, EphB3, EphB4, and EphB6) was amplified by RT-PCR using tissue-derived total RNA and cloned into a pENTR1A vector (Invitrogen/Life Technologies) having a DNA sequence encoding SEAP protein and histidine tag. […]
Measurement Kind: hEphA8-SEAP-: absorbance at 450 nm, percentage with respect to hEphA4-SEAP-His as 100% (%)
Kindly answer with a numeric value in %, unit omitted.

141 (antibody, V domains shown, synthetic humanized antibody heavy chain variable region sequence; synthetic humanized antibody light chain variable region sequence) VH: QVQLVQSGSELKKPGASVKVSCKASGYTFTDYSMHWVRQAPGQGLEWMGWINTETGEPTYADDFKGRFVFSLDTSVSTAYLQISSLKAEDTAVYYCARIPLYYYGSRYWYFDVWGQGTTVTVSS VL: DIQMTQSPSSLSASVGDRVTITCRASENIYRNLAWYQQKPGKAPKLLVYAATNLADGVPSRFSGSGSGTDYTLTISSLQPEDFATYYCQHFWGTPWTFGQGTKVEIK
5.5

Given item 144 (antibody, V domains shown, synthetic humanized antibody heavy chain variable region sequence; synthetic humanized antibody light chain variable region sequence) VH: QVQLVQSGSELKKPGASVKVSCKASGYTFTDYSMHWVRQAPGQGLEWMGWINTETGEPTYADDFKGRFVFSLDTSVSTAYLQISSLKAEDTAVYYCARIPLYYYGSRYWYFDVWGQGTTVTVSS VL: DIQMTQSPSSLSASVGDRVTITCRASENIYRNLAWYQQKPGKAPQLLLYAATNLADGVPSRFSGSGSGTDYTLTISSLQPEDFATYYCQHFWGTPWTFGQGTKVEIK , the value recorded as its hEphA8-SEAP-: absorbance at 450 nm, percentage with respect to hEphA4-SEAP-His as 100% is 5.8

Given item 69 (antibody, V domains shown, synthetic humanized antibody heavy chain variable region sequence; synthetic humanized antibody light chain variable region sequence) VH: QIQLVQSGSELKKPGASVKVSCKASGYTFTDYSMHWVRQAPGQGLKWMGWINTETGEPTYADDFKGRFVFSLDTSVSTAYLQISSLKAEDTAVYYCARIPLYYYGSRYWYFDVWGQGTTVTVSS VL: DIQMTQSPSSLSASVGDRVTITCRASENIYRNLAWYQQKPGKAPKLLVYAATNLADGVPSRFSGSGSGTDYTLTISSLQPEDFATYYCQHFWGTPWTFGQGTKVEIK , the value recorded as its hEphA8-SEAP-: absorbance at 450 nm, percentage with respect to hEphA4-SEAP-His as 100% is 5.5

Given item 155 (antibody, V domains shown, synthetic humanized antibody heavy chain variable region sequence; synthetic humanized antibody light chain variable region sequence) VH: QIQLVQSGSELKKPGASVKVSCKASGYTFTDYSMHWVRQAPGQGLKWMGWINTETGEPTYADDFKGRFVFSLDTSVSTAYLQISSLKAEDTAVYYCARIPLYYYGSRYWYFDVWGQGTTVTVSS VL: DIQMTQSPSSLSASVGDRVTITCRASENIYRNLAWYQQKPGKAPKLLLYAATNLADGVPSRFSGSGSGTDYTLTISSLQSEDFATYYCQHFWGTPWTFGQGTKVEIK , the value recorded as its hEphA8-SEAP-: absorbance at 450 nm, percentage with respect to hEphA4-SEAP-His as 100% is 5.5

Given item 136 (antibody, V domains shown, synthetic humanized antibody heavy chain variable region sequence; synthetic humanized antibody light chain variable region sequence) VH: QVQLVQSGSELKKPGASVKVSCKASGYTFTDYSMHWVRQAPGQGLKWMGWINTETGEPTYADDFKGRFVFSLDTSVSTAYLQISSLKAEDTAVYYCARIPLYYYGSRYWYFDVWGQGTTVTVSS VL: EIVMTQSPATLSVSPGERATLSCRASENIYRNLAWYQQKPGQSPRLLIYAATNLADGIPARFSGSGSGTEYTLTISSLQSEDFAVYYCQHFWGTPWTFGQGTKVEIK , the value recorded as its hEphA8-SEAP-: absorbance at 450 nm, percentage with respect to hEphA4-SEAP-His as 100% is 5.4

Given item 159 (antibody, V domains shown, synthetic humanized antibody heavy chain variable region sequence; synthetic humanized antibody light chain variable region sequence) VH: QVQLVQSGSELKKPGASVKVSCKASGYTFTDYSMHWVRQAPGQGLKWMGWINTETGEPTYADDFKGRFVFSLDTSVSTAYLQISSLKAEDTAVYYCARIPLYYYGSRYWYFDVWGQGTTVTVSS VL: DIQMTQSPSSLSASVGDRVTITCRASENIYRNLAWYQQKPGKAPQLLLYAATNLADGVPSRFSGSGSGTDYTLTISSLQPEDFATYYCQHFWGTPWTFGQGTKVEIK , the value recorded as its hEphA8-SEAP-: absorbance at 450 nm, percentage with respect to hEphA4-SEAP-His as 100% is 5.5

Given item 158 (antibody, V domains shown, synthetic humanized antibody heavy chain variable region sequence; synthetic humanized antibody light chain variable region sequence) VH: QVQLVQSGSELKKPGASVKVSCKASGYTFTDYSMHWVRQAPGQGLKWMGWINTETGEPTYAQGFTGRFVFSLDTSVSTAYLQISSLKAEDTAVYYCARIPLYYYGSRYWYFDVWGQGTTVTVSS VL: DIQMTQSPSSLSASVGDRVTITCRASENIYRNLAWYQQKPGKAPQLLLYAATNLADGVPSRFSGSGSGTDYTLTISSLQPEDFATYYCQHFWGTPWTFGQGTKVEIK , the value recorded as its hEphA8-SEAP-: absorbance at 450 nm, percentage with respect to hEphA4-SEAP-His as 100% is 6.4
